Reference source for all entries: patent US11266686B2

What Plasma Ke was measured for each of the following?
experiment: Pharmacokinetics in mice after oral administration, plasma and brain by LC/MS/MS; conditions: mouse plasma, 30 mg/kg CuXTSM API oral
Give bare numbers, in min⁻¹.

CNC1=NN=C(C)C(C)=NN=C(NC)[S][Cu][S]1.O=C1NS(=O)(=O)c2ccccc21.O=C1NS(=O)(=O)c2ccccc21 [CuATSM:saccharin (1:2)]
0.0040

Quick request: Plasma Ke for each listed item, please.
1. CNC1=NN=C(C)C(C)=NN=C(NC)[S][Cu][S]1.O=C(O)CC(O)(CC(=O)O)C(=O)O [CuATSM:citric acid (1:1)]
2. CNC1=NN=CC(C)=NN=C(NC)[S][Cu][S]1.O=C1NS(=O)(=O)c2ccccc21.O=C1NS(=O)(=O)c2ccccc21 [CuPTSM:saccharin (1:2)]
3. CNC1=NN=C(C)C(C)=NN=C(NC)[S][Cu][S]1.O=C(O)C(O)C(O)C(O)C(O)CO.O=C(O)C(O)C(O)C(O)C(O)CO [CuATSM:gluconic acid (1:2)]
4. CNC1=NN=C(C)C(C)=NN=C(NC)[S][Cu][S]1 [CuATSM, reference compound]

0.0034
0.0016
0.0028
0.0035

---

experiment: Pharmacokinetics in mice after oral administration, plasma and brain by LC/MS/MS; conditions: mouse brain, 30 mg/kg CuXTSM API oral
REPORTED_PROPERTY: Brain AUC0-24h (ng·min/g)
Answers are plain numbers, in ng·min/g.

CNC1=NN=CC(C)=NN=C(NC)[S][Cu][S]1.O=C1NS(=O)(=O)c2ccccc21.O=C1NS(=O)(=O)c2ccccc21 [CuPTSM:saccharin (1:2)]
62832
CNC1=NN=C(C)C(C)=NN=C(NC)[S][Cu][S]1.O=C(O)C(O)C(O)C(O)C(O)CO.O=C(O)C(O)C(O)C(O)C(O)CO [CuATSM:gluconic acid (1:2)]
71554
CNC1=NN=C(C)C(C)=NN=C(NC)[S][Cu][S]1.O=C1NS(=O)(=O)c2ccccc21.O=C1NS(=O)(=O)c2ccccc21 [CuATSM:saccharin (1:2)]
30643
CNC1=NN=C(C)C(C)=NN=C(NC)[S][Cu][S]1 [CuATSM, reference compound]
10944

For the molecule CNC1=NN=C(C)C(C)=NN=C(NC)[S][Cu][S]1.O=C(O)CC(O)(CC(=O)O)C(=O)O [CuATSM:citric acid (1:1)] , give its reported Brain AUC0-24h.
15435

---

What Plasma AUC0-24h was measured for each of the following?
assay: Pharmacokinetics in mice after oral administration, plasma and brain by LC/MS/MS; conditions: mouse plasma, 30 mg/kg CuXTSM API oral; CuATSM in SSV, NCDs in water

Quick request: Plasma AUC0-24h for each listed item, please.
1. CNC1=NN=C(C)C(C)=NN=C(NC)[S][Cu][S]1.O=C(O)C(O)C(O)C(O)C(O)CO.O=C(O)C(O)C(O)C(O)C(O)CO [CuATSM:gluconic acid (1:2)]
2. CNC1=NN=C(C)C(C)=NN=C(NC)[S][Cu][S]1 [CuATSM, reference compound]
3. CNC1=NN=CC(C)=NN=C(NC)[S][Cu][S]1.O=C1NS(=O)(=O)c2ccccc21.O=C1NS(=O)(=O)c2ccccc21 [CuPTSM:saccharin (1:2)]
4. CNC1=NN=C(C)C(C)=NN=C(NC)[S][Cu][S]1.O=C1NS(=O)(=O)c2ccccc21.O=C1NS(=O)(=O)c2ccccc21 [CuATSM:saccharin (1:2)]
5. CNC1=NN=C(C)C(C)=NN=C(NC)[S][Cu][S]1.O=C(O)CC(O)(CC(=O)O)C(=O)O [CuATSM:citric acid (1:1)]

25 163 min*ng/mL
9637 ng·min/mL
60004 ng·min/mL
20 333 min*ng/mL
8292 ng·min/mL

---

assay: Pharmacokinetics in mice after oral administration, plasma and brain by LC/MS/MS; settings: mouse brain, 30 mg/kg CuXTSM API oral
REPORTED_PROPERTY: Brain Tmax (h)
Give bare numbers, in h.

CNC1=NN=C(C)C(C)=NN=C(NC)[S][Cu][S]1.O=C(O)C(O)C(O)C(O)C(O)CO.O=C(O)C(O)C(O)C(O)C(O)CO
4
CNC1=NN=C(C)C(C)=NN=C(NC)[S][Cu][S]1.O=C1NS(=O)(=O)c2ccccc21.O=C1NS(=O)(=O)c2ccccc21
0.25
CNC1=NN=C(C)C(C)=NN=C(NC)[S][Cu][S]1 [CuATSM, reference compound]
1

Quick request: Brain Tmax for each listed item, please.
1. CNC1=NN=C(C)C(C)=NN=C(NC)[S][Cu][S]1.O=C(O)CC(O)(CC(=O)O)C(=O)O
2. CNC1=NN=CC(C)=NN=C(NC)[S][Cu][S]1.O=C1NS(=O)(=O)c2ccccc21.O=C1NS(=O)(=O)c2ccccc21

1
0.5

---

What Plasma AUC0-inf was measured for each of the following?
Assay: Pharmacokinetics in mice after oral administration, plasma and brain by LC/MS/MS
Details: mouse plasma, 30 mg/kg CuXTSM API oral; CuATSM in SSV, NCDs in water
Description: CuATSM was suspended in “Standard Suspension Vehicle” (SSV), consisting of 0.9% (w/v) NaCl, 0.5% (w/v) sodium carboxymethylcellulose, 0.5% (v/v) benzyl alcohol, and 0.4% (v/v) Tween 80 in deionized water. […] The pharmacokinetic parameters for study compounds in plasma and brain were calculated using standard non-compartmental methods. The elimination phase half-life (t½) was calculated by least-squares regression analysis of the terminal linear part of the log concentration-time curve. […]
Answer by giving the amount and then stating its unit.

CNC1=NN=C(C)C(C)=NN=C(NC)[S][Cu][S]1.O=C(O)C(O)C(O)C(O)C(O)CO.O=C(O)C(O)C(O)C(O)C(O)CO [CuATSM:gluconic acid (1:2)]
25696 ng·min/mL
CNC1=NN=C(C)C(C)=NN=C(NC)[S][Cu][S]1 [CuATSM, reference compound]
9698 ng·min/mL
CNC1=NN=C(C)C(C)=NN=C(NC)[S][Cu][S]1.O=C1NS(=O)(=O)c2ccccc21.O=C1NS(=O)(=O)c2ccccc21 [CuATSM:saccharin (1:2)]
20436 ng·min/mL
CNC1=NN=CC(C)=NN=C(NC)[S][Cu][S]1.O=C1NS(=O)(=O)c2ccccc21.O=C1NS(=O)(=O)c2ccccc21 [CuPTSM:saccharin (1:2)]
68278 ng·min/mL

Shifting focus to the compound that follows.
For the compound CNC1=NN=C(C)C(C)=NN=C(NC)[S][Cu][S]1.O=C(O)CC(O)(CC(=O)O)C(=O)O [CuATSM:citric acid (1:1)] , give its reported Plasma AUC0-inf.
8366 ng·min/mL

---

assay: Pharmacokinetics in mice after oral administration, plasma and brain by LC/MS/MS; conditions: mouse brain, 30 mg/kg CuXTSM API oral
So basically, if Brain Cmax comes in under 80 ng/g it's Criterion met, and if it's 80 ng/g or more it's Criterion not met.

Solved cases (3 shown):
CNC1=NN=CC(C)=NN=C(NC)[S][Cu][S]1.O=C1NS(=O)(=O)c2ccccc21.O=C1NS(=O)(=O)c2ccccc21
Criterion not met
CNC1=NN=C(C)C(C)=NN=C(NC)[S][Cu][S]1.O=C1NS(=O)(=O)c2ccccc21.O=C1NS(=O)(=O)c2ccccc21
Criterion met
CNC1=NN=C(C)C(C)=NN=C(NC)[S][Cu][S]1.O=C(O)C(O)C(O)C(O)C(O)CO.O=C(O)C(O)C(O)C(O)C(O)CO
Criterion not met

Does CNC1=NN=C(C)C(C)=NN=C(NC)[S][Cu][S]1 [CuATSM, reference compound] have Brain Cmax strictly under 80 ng/g?
Criterion met

Does CNC1=NN=C(C)C(C)=NN=C(NC)[S][Cu][S]1.O=C(O)CC(O)(CC(=O)O)C(=O)O have Brain Cmax strictly under 80 ng/g?
Criterion met
